# assay-system: AUF1-RRM1,2 (UniProt Q14103-4 70-239)
# Sequence (Q14103 other isoform, or with tags, fused parts or gaps): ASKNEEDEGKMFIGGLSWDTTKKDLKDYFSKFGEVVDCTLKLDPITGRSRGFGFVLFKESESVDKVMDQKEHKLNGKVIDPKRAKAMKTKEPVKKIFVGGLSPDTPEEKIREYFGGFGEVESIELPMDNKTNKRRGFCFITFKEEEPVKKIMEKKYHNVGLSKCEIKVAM
# protocol-details: ITC; DMA-135, RNA:DMA 1:5; ITC: 10 mM K2HPO4, 20 mM KCl, 0.5 mM EDTA, 4 mM BME, pH 6.5, 25 C; lysate pull-down: 5 mM HEPES pH 7.1, 40 mM KCl, 0.1 mM EDTA, 2 mM MgCl2, 2 mM DTT, 0.25 mg/ml heparin, 30 C
# conditions-used: protein: recombinant; tags: N-terminal His6, cleaved with TEV; hairpin with 5-nt bulge and 7-nt apical loop
reported-property: pKd
Recall that pKd is obtained by taking minus log10 of the concentration measured in molar.

Ask | Name the recorded pKd for GGAUCAAUAGCAGGUGUGGCACACCAGUCAUACCUUGAUCC (structured_RNA) [EV71 SLII (SLII2231)] .
Reply | 6.87

Cited source for all entries: paper PMC7508794
